Target: human leukocyte elastase (Homo sapiens, UniProt P08246)
Sequence (P08246 30-267): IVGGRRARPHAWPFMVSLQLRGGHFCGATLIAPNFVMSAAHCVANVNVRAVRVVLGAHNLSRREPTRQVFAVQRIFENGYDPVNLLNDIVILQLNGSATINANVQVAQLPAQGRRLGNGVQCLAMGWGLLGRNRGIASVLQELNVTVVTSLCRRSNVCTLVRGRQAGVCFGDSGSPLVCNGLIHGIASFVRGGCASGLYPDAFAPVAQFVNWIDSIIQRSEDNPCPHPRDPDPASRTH
Experiment: human leukocyte elastase inhibition, progress curves with MeOSuc-Ala-Ala-Pro-Val-pNA
Type: biochemical
Conditions: HLE; substrate MeOSuc-Ala-Ala-Pro-Val-pNA; pH 7.8, 25° C.; 410 nM absorbance; read-out: inhibition constant Ki
Can you tell me Ki for the items I'm about to list?
Enter your answer as a number in nM; do not include the unit.

// query // lookup Ki | system=human leukocyte elastase (Homo sapiens, UniProt P08246) | key= CC(C)C1NS(=O)(=O)N(CSc2nnnn2-c2ccccc2)C1=O (racemic) [2 (f)]
// result 3000

// query // lookup Ki | system=human leukocyte elastase (Homo sapiens, UniProt P08246) | key= O=C1C2CCCN2S(=O)(=O)N1CSc1nnnn1-c1ccccc1 (stereo not shown) [19 (f)]
// result 540

// query // lookup Ki | system=human leukocyte elastase (Homo sapiens, UniProt P08246) | key= CCCC1C(=O)N(CSc2nnnn2-c2ccccc2)S(=O)(=O)N1CC (stereo not shown) [5 (i)]
// result 11

// query // lookup Ki | system=human leukocyte elastase (Homo sapiens, UniProt P08246) | key= CCCC1NS(=O)(=O)N(CSc2nnnn2-c2ccccc2)C1=O (stereo not shown) [1 (f)]
// result 180
